# measuredOn: UniProtKB O43148
# Sequence (O43148 whole entry, looked up): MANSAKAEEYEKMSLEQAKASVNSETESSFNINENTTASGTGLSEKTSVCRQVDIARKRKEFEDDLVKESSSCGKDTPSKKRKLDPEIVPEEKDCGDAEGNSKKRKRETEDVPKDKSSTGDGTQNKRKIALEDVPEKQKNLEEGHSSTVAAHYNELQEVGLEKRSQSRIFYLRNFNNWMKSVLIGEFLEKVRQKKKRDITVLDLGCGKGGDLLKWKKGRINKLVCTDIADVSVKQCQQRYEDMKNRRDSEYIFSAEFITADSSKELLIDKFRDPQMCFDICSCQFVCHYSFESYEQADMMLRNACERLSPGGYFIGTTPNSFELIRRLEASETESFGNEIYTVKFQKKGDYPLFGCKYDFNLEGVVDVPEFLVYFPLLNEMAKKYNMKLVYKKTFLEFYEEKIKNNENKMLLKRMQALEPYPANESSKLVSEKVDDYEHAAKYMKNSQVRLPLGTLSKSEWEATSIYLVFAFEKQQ

smiles	IC50
Nc1ncnc2c1ncn2[C@@H]1O[C@H](C[C@@H](N)CC[C@H](N)C(=O)O)[C@@H](O)[C@H]1O	< 50 nM

The origin of these recorded values is paper PMC7113892.
